- subject.of.test: human Nav1.7 (Homo sapiens (Human))
- Sequence (Q15858 whole entry): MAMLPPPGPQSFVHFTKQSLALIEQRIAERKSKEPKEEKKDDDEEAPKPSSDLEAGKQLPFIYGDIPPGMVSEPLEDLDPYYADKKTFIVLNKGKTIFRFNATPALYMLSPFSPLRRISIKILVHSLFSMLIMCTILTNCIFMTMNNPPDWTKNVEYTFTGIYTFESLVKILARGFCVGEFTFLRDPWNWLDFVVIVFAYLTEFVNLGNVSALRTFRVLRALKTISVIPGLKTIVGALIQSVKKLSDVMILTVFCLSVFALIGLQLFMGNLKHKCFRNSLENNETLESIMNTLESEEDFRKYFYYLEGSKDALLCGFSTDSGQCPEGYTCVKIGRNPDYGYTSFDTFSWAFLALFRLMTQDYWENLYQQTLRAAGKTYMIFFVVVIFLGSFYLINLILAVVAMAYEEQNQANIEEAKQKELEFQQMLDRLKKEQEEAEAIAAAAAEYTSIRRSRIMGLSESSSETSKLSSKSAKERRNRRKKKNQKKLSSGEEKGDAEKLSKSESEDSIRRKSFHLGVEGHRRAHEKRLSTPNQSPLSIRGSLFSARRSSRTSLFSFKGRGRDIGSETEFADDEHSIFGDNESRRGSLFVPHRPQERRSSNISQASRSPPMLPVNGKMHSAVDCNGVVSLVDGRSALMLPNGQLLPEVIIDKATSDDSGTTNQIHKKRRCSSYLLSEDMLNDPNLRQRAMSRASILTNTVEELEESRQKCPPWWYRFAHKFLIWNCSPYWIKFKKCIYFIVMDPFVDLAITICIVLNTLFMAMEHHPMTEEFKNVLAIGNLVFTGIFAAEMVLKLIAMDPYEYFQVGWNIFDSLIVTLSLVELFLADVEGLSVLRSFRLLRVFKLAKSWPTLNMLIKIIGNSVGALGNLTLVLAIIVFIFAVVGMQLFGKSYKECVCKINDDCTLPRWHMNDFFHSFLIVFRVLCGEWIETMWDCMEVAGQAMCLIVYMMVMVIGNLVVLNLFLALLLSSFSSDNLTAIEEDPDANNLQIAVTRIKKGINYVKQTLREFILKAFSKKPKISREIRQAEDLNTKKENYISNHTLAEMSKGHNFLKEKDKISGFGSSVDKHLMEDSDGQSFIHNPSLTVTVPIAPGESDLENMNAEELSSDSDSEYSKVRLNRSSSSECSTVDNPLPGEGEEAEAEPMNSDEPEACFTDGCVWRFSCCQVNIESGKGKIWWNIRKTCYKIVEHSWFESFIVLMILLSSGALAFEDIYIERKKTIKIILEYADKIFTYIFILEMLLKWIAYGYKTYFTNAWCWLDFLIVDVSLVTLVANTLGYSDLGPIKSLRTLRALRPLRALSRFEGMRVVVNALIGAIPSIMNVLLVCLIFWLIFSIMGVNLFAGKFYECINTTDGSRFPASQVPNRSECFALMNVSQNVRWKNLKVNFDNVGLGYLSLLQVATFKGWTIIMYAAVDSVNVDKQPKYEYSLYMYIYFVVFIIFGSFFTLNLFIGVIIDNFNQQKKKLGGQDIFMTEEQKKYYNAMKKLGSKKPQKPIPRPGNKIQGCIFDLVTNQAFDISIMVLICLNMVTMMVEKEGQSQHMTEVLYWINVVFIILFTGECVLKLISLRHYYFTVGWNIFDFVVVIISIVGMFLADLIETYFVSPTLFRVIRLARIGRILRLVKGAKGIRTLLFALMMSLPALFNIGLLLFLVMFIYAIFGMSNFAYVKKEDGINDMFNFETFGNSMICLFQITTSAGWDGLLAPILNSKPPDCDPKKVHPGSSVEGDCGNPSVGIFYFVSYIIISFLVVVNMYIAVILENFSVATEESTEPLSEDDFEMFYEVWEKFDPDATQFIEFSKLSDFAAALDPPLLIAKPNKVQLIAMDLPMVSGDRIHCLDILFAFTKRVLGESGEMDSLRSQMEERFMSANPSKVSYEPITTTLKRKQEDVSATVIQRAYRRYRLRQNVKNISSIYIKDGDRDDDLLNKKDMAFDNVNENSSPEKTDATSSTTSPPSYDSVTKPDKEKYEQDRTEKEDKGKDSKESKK
- Sequence (Q07699 19-218 partner): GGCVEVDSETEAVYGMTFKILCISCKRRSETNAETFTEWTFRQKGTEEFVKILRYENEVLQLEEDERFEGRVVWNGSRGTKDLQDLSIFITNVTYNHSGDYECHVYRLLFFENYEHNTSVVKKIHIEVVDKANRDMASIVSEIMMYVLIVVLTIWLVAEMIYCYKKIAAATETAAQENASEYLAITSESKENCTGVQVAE
- procedure.details: Human Nav1.7 inhibitory activity evaluation (automated patch clamp QPatch16X, HEK293A cells stably expressing human Nav1.7 and human Navβ1)
- Type: cell-based
- settings: HEK293A cells stably expressing human Nav1.7 and human Navβ1, automated patch clamp QPatch16X
Could you please report measured IC50 for the items listed next?

Qu. Fill in IC50 for CC(C)(C)OCC1CCc2nc(C(=O)N[C@H]3COc4ccccc4C3)cn2C1 (some centres unmarked) tested with human Nav1.7 (Homo sapiens (Human)).
Ans. < 10 µM

Qu. Report measured IC50 on human Nav1.7 (Homo sapiens (Human)); entry: C[C@H]1CCn2nc(C(=O)N[C@H]3COc4ccc(Cl)cc4C3)cc2O1
Ans. < 1 µM

Qu. Fill in: IC50 on human Nav1.7 (Homo sapiens (Human)), entry O=C(N[C@H]1COc2ccccc2C1)c1cn2c(n1)CNC(C1CCCC1)C2 (some centres unmarked)
Ans. < 10 µM

Qu. Give IC50 only, for O=C(NC1COc2cccc(Br)c2C1)c1cn2c(n1)CCC(C(F)(F)F)C2 (single isomer, unassigned) [9 (isomer A)] , using human Nav1.7 (Homo sapiens (Human)) data.
Ans. < 10 µM

Qu. Param request: IC50 | system human Nav1.7 (Homo sapiens (Human)) | item CN1Cc2nc(C(=O)NCCc3cccc(N4CCOCC4)c3)cn2CC1c1ccccc1 (centres unmarked)
Ans. < 10 µM

Qu. Jot down IC50 (human Nav1.7 (Homo sapiens (Human))) of N#Cc1ccc2c(c1)C[C@@H](NC(=O)c1cc3n(n1)CCC(COCC1CC1)O3)CO2 (mixture of isomers) [Example 102] .
Ans. < 1 µM

Qu. Under human Nav1.7 (Homo sapiens (Human)): report IC50 of C[C@@H]1CCn2nc(C(=O)N[C@H]3COc4ccc(Cl)cc4C3)cc2O1 .
Ans. < 10 µM

Qu. Send back human Nav1.7 (Homo sapiens (Human)) IC50 of O=C(NC1COc2ccc(F)cc2C1)c1cn2c(n1)CCC(C(F)(F)F)C2 (centres unmarked) only.
Ans. < 10 µM

###

- subject.of.test: human Nav1.5 (Homo sapiens (Human))
- Sequence (Q14524 whole entry): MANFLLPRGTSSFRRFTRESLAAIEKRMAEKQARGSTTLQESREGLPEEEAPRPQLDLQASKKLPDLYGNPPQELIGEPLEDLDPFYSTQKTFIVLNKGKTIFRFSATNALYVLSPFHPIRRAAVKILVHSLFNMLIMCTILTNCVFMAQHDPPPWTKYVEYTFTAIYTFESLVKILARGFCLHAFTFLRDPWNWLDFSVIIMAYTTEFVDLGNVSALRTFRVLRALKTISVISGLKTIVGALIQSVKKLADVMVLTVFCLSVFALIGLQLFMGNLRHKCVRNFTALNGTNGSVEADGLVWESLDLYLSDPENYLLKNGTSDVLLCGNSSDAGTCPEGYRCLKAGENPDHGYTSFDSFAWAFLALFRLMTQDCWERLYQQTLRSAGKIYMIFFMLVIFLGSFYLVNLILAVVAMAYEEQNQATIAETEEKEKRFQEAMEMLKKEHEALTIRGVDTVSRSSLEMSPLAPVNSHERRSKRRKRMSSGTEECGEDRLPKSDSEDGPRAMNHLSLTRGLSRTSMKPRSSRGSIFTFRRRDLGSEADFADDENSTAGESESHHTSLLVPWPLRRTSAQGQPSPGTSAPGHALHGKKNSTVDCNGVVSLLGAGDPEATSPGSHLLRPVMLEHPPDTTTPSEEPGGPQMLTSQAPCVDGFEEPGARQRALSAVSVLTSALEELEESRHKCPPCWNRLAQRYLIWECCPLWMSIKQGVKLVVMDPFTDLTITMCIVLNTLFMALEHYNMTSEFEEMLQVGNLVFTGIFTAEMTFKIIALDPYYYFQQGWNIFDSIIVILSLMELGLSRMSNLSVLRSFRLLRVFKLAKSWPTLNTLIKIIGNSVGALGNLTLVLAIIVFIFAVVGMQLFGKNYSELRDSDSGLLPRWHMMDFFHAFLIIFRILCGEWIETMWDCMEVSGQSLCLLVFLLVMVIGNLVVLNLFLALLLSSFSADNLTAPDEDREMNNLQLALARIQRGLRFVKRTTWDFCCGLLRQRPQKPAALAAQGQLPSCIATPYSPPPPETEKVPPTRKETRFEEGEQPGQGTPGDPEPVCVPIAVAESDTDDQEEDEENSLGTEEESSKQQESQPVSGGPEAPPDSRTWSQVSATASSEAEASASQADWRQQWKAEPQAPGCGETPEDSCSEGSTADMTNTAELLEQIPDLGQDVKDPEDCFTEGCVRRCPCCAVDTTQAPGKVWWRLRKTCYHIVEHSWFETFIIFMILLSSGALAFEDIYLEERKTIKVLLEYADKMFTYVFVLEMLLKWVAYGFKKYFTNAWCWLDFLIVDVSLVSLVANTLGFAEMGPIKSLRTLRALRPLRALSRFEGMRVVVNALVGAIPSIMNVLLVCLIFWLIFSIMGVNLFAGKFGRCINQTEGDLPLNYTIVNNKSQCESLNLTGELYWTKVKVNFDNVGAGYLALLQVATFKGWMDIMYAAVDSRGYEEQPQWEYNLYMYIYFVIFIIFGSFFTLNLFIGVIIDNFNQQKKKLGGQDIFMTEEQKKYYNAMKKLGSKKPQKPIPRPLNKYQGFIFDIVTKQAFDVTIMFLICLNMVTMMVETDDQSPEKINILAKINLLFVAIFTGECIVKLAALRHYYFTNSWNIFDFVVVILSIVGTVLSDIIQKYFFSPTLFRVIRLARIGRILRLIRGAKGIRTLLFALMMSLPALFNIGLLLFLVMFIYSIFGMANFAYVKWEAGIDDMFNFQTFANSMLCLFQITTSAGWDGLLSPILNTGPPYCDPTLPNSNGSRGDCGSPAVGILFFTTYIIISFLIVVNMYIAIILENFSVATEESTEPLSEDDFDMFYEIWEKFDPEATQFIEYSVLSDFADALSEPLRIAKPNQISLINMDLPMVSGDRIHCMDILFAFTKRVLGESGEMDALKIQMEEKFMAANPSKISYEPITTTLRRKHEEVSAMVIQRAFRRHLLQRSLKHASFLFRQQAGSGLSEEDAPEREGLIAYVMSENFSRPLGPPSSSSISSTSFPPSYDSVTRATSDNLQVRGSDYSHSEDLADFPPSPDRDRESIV
- procedure.details: Human Nav1.5 inhibitory activity evaluation (automated patch clamp QPatch16X, HEK293 cells stably expressing human Nav1.5)
- Format: cell-based
- settings: human Nav1.5, automated patch clamp
measure: IC50

Qu. Complete the entry with IC50 for N#Cc1ccc2c(c1)C[C@@H](NC(=O)c1cc3n(n1)CCC(COCC1(F)CC1)O3)CO2 (mixture of isomers) [Example 532]
Ans. ≥ 3000 nM

Qu. Look up and report measured IC50 for this entry: N#Cc1ccc2c(c1)C[C@@H](NC(=O)c1cc3n(n1)CCC(CSC(F)(F)F)O3)CO2 (single isomer, unassigned) [156 (isomer A)]
Ans. ≥ 3000 nM

Qu. Return the recorded IC50 value; entry: CC(C)(c1ccccn1)N1CCn2nc(C(=O)N[C@H]3COc4ccc(Cl)cc4C3)cc2C1
Ans. 1000 to 3000 nM

Qu. Output IC50 of O=C(N[C@H]1COc2ccc(C(F)(F)F)cc2C1)c1cc2n(n1)CCN(CCOC1CCC1)C2
Ans. ≥ 3000 nM

Qu. Provide IC50 value for the following molecule: N#Cc1ccc2c(c1)C[C@@H](NC(=O)c1cc3n(n1)CC[C@H](COCC(F)(F)F)CO3)CO2 (single isomer, unassigned; isomer a) [572(isomer A)]
Ans. ≥ 3000 nM

Qu. Return value of IC50 for input Cn1cc(-c2ccc3c(c2)C[C@@H](NC(=O)c2cc4n(n2)CC(CCOC(F)F)O4)CO3)cn1 (single isomer, unassigned) [221 (isomer A)] , no commentary.
Ans. ≥ 3000 nM
